Every entry's value here was drawn from patent US20250092134A1.

# EXPERIMENTAL TARGET: HuTCR Vb17 × Va10.2 (SKW3_1) (human)
# Sequence (A0A075B6N1 22-114, chain 1 of 2): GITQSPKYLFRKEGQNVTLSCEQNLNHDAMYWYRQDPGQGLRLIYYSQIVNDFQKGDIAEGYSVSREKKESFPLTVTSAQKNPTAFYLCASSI
# Sequence (A0A087WT01 20-109, chain 2 of 2, further chain): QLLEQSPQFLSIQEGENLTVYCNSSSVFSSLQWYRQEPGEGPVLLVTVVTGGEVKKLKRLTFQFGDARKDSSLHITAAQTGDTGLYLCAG
# TEST DESCRIPTION: flow cytometry on SKW3-1 cells
MFI below 50000 MFI gives No; MFI at or above it gives Yes.

>  <BINDER>
23A9B10 (antibody, V domains shown) VH: EVQLQESGPGLVKPSQSLSLTCSVTGYSITSGYYWNWIRQFLGNKLEWMGYITYDGSNNYNPSLKDRISITRDTSKNQFFLNLNSVTTDDTATYYCARGGGYVPVWGTGTTVTVSS VL: IQMTQSPAFLSVSPGERVSFSCRASQNIGTSIHWYQQRTNGSPRLLIKYASESISGIPSRFSGSGSGTDFTLSINSVESEDFADYYCHQSHNWPTTFGAGTKLELK

>  <ANSWER LABEL>
No

$$$$
>  <BINDER>
23A9F7 (antibody, V domains shown) VH: EVQLQESGPGLVKPSQSLSLTCSVTGYSITSGYYWNWIRQFLGNKLEWMGYITYDGSNNYNPSLKDRISITRDTSKNQFFLNLNSVTTDDTATYYCARGGGYVPVWGTGTTVTVSS VL: DVQMTQSPAFLSVSPGERVSFSCRASQNIGTSIHWYQQRTNGSPRLLIKYASESISGIPSRFSGSGSGTDFTLSINSVESEDFADYYCHQSHNWPTTFGAGTKLELK

>  <ANSWER LABEL>
No

$$$$
>  <BINDER>
28D2E6 (antibody, IgG1, V domains shown) VH: EVQLQESGPGLVKPSQSLSLTCSVTGYFISSGYYWKWIRQFPGNKLEWMGYISYDGSNNYNPSLKNRISITRDTSKNQFFLKLNSVTAEDTATYYCARGGGYVPVWGTGTTVTVSS VL: DIQMTQSPLSLPVSLGDQASISCRSSQSIVRSNGNTYLEWYLQKPGQSPKLLIYKVSNRFSGVPDRFSGSGSGTDFTLKISRVEAEDLGVYYCFQSSHVPRTFGGGTKLEIK

>  <ANSWER LABEL>
No

$$$$
>  <BINDER>
28B2F5 (antibody, IgG2a, V domains shown) VH: EVQLQESGPELVKPGASVKMSCKASGYTFTDDNMHWVKQSHGKSLEWIGYINPNNNHTNYNQKFKGKATLTVNKSSSTAYMELRSLTSEDSAVYFCARSTVVPFYAMDYWGQGTSVTVSS VL: DIKMTQSPASLSMAIGEKVTIRCITITDIDDDMNWYQQKPGEPPKLLFSEGNTLRPGVPSRFSSSGYGSDFAFTIENMLSEDVADYYCLQSDNLPLTFGAGTKLELK

>  <ANSWER LABEL>
Yes

$$$$
>  <BINDER>
28D2E8 (antibody, IgG1, V domains shown) VH: EVQLQESGPGLVKPSQSLSLTCSVTGYFISSGYYWKWIRQFPGNKLEWMGYISYDGSNNYNPSLKNRISITRDTSKNQFFLKLNSVTAEDTATYYCARGGGYVPVWGTGTTVTVSS VL: DIKMTQSPLSLPVSLGDQASISCRSSQSIVRSNGNTYLEWYLQKPGQSPKLLIYKVSNRFSGVPDRFSGSGSGTDFTLKISRVEAEDLGVYYCFQSSHVPRTFGGGTKLEIK

>  <ANSWER LABEL>
No

$$$$
>  <BINDER>
28B2A2 (antibody, IgG2a, V domains shown) VH: EVQLQESGPELVKPGASVKMSCKASGYTFTDDNMHWVKQSHGKSLEWIGYINPNNNHTNYNQKFKGKATLTVNKSSSTAYMELRSLTSEDSAVYFCARSTVVPFYAMDYWGQGTSVTVSS VL: DIVMTQSPASLSMAIGEKVTIRCITITDIDDDMNWYQQKPGEPPKLLFSEGNTLRPGVPSRFSSSGYGSDFAFTIENMLSEDVADYYCLQSDNLPLTFGAGTKLELK

>  <ANSWER LABEL>
Yes

$$$$
>  <BINDER>
20A9A9 (antibody, V domains shown) VH: EVQLQESGPGLVQPSQSLSITCTVSGFSLTSYGVHWVRQSPGKGLEWLGIIWSAGGTDYNAAFISRLSISKDNSKSQIFFKLNSLHADDTAIYFCARGSFYDYGRLDYWGQGTTLTVSS VL: DIVMTQSHRFMSTSVGDRVSITCKASQDVSTAVAWYQQKPGQSPKLLIYSSSYRYTGVPDRFTGSGSGTDFTFTISSVQAEDLAVYYCQQHYGTPYTFGGGTKLEIQ

>  <ANSWER LABEL>
No

$$$$
>  <BINDER>
28B2A4 (antibody, IgG2a, V domains shown) VH: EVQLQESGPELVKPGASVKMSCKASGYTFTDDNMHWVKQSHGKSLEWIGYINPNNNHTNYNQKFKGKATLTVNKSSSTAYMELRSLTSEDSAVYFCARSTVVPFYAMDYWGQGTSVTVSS VL: DIQMTQSPASLSMAIGEKVTIRCITITDIDDDMNWYQQKPGEPPKLLFSEGNTLRPGVPSRFSSSGYGSDFAFTIENMLSEDVADYYCLQSDNLPLTFGGGTKLEIK

>  <ANSWER LABEL>
No

$$$$
>  <BINDER>
28C9A5 (antibody, IgG2b, V domains shown) VH: EVQLQESGAELVRPGTSVKMSCKASGYTFTHYWIDWTKQRPGHGLEWIGNIYPGGGYTNYNENFKGKATLTADKSSSTVFMQFSSLTSDDSAIYYCTRKGYYYGSDWYFDVWGTGTTVTVSS VL: QIVLSQSPAIMSASPGEKVTMTCSASSSVSYMHWYQQKSGTSPKRWIYDTSKLASGVPARFSGSGSGTSYSLTISSMEAEDAATYYCQQWSSNPYTFGGGTKLEIK

>  <ANSWER LABEL>
Yes

$$$$
>  <BINDER>
21G11D5 (antibody, V domains shown) VH: EVQLQESGPDLKKPGETVKISCKASGYTFTTYGMNWVKQAPGKGLKWMGYLNTYSGVSTYADDFKGRFAFSLETSANTAYLQINNLRNDDTATYFCARWGNYGAMDYWGQGTSVTVSS VL: DIVMTQSPLSLPVSLGDQASISCRSSQSIVRSNGFTYLEWYLQKPGQSPELLIYKVSNRFSGVPDRFSGSGSGTDFTLKISRVEAEDLGVYYCFQSSHVPRTFGGGTKLEIK

>  <ANSWER LABEL>
No

$$$$
